Test: inhibitors of E-selectin induction by TNFa, primary screen, imaging, HUVEC, immunofluorescence, MLSMR starter and 10KST1 sets (AID 487);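 also: signal is fraction of cell area covered by stained E-selectin grains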
Details: HUVEC TNFalpha-induced E-selectin immunofluorescence imaging, at 2 µM; hits give high values
Each entry falls into one class according to its inhibition; the ranges are low band: < -70%; middle band: ≥ -70% and < -30%; high band: ≥ -30%

- COMPOUND: "Cc1csc2ncc(C(=O)N3CCc4ccccc43)c(=O)n12"
  GROUP_LABEL: "high band"
- COMPOUND: "CCOc1ccc(NC(=O)C(C)Sc2nnc(C)n2C)cc1 (stereo unspecified)"
  GROUP_LABEL: "middle band"
- COMPOUND: "COC(=O)CCc1c(C)[nH]c(=S)[nH]c1=O"
  GROUP_LABEL: "low band"
- COMPOUND: "CCOc1ccccc1NC(=O)CN(C)S(=O)(=O)c1cccc2nsnc12"
  GROUP_LABEL: "low band"
- COMPOUND: "Cc1c2c([n+]3n1CCC3)CC(C)(C)CC2=O"
  GROUP_LABEL: "high band"
- COMPOUND: "CC(C)COC(=O)CCNc1n[nH]c(=O)[nH]c1=O"
  GROUP_LABEL: "high band"
- COMPOUND: "CC(C)CNc1nc2c(c(=O)n(C)c(=O)n2C)n1Cc1cccc(Br)c1"
  GROUP_LABEL: "low band"
- COMPOUND: "COCCn1c(SCc2csc(-c3ccccc3)n2)nc2ccccc21"
  GROUP_LABEL: "high band"
- COMPOUND: "CCC(=NC(CC)CO)C1=C(O)CC(C)(C)CC1=O (stereo unspecified)"
  GROUP_LABEL: "low band"
- COMPOUND: "COc1ccc(OC)c(C2C(C(=O)Nc3ccc(F)cc3)=C(C)Nc3nc(CCCO)nn32)c1 (stereo unspecified)"
  GROUP_LABEL: "middle band"

###

Experiment: inhibitors of TNFa-induced NFkB p65 translocation, primary screen, imaging, HUVEC, MLSMR starter and 10KST1 sets (AID 438);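 also: compound added about 3h40 before a 20 min TNFalpha stimulation; signal is the nuclear over cytoplasmic p65 intensity ratio per well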
Conditions: HUVEC TNFa-induced p65 nuclear translocation; at 2 µM, hits give high values, 0% TNFa-plus-vehicle, 100% no-TNFa wells
Catalogue of inhibition readings, one per entry.
ASSAY_METRIC: inhibition (%)

- COMPOUND: "CCOC(=O)C1CCN(c2c(NCCN3CCN(c4ccccc4)CC3)c(=O)c2=O)CC1"
  ENDPOINT_RESULT: 7.8
- COMPOUND: "O=C(NCC(F)(F)F)Nc1nnc(C(F)(F)F)s1"
  ENDPOINT_RESULT: 2.9
- COMPOUND: "CCOc1ccc(N(C(C)=O)C2C=CS(=O)(=O)C2)cc1 (stereo not given)"
  ENDPOINT_RESULT: -0.2
- COMPOUND: "CCCC1C(c2ccc(OC)cc2)C(C#N)(C#N)C2(C#N)CC1(N)NC2=O (stereo not given)"
  ENDPOINT_RESULT: -0.7
- COMPOUND: "CCOC(=O)c1ccc2[nH]c(C)c(CN3CCN(C)CC3)c(=O)c2c1"
  ENDPOINT_RESULT: 6.1
- COMPOUND: "Cn1c(=O)c2c(nc(CN3CCCCC3)n2CCc2ccccc2)n(C)c1=O"
  ENDPOINT_RESULT: -1
- COMPOUND: "O=C(COC(=O)C1CC(=O)N(c2ccccc2)C1)c1ccccc1 (stereo not given)"
  ENDPOINT_RESULT: 2.4
- COMPOUND: "COn1c(SC2CCCCC2)nc2ccccc2c1=O"
  ENDPOINT_RESULT: -3.1
- COMPOUND: "COC(=O)c1ccc(C2/C(=C(\\O)c3ccc4c(c3)OCCO4)C(=O)C(=O)N2CCCN(C)C)cc1 (stereo not given)"
  ENDPOINT_RESULT: -2.2
- COMPOUND: "CCN(CC)CCCN1C(=O)C(=O)/C(=C(/O)c2ccc3c(c2)CC(C)O3)C1c1cccnc1 (stereo not given)"
  ENDPOINT_RESULT: -10.8
